Taken from PubChem BioAssay AID1963972.

# pIC50 per record follows
tested on: 945468-187-T-J2-PDC spheroids viability; assay: Anticancer human tumor 945468-187-T-J2-PDC patient-derived rectal carcinoma cell line growth inhibition [PI3K]; conditions: curve of first compound; second compound 10 µM; spheroids with HUVEC and MSC;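 also: spheroids exposed to compounds for seven days before reading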
pIC50: −log10 of the molar value.
value_type: pIC50

Cn1ncc(Cl)c1-c1cc(C(=O)NC(CN)Cc2cccc(F)c2)sc1Cl (stereo unspecified) + Cc1nc(NC(=O)N2CCCC2C(N)=O)sc1-c1ccnc(C(C)(C)C(F)(F)F)c1 : < 5.00
CC(=O)c1c(C)c2cnc(Nc3ccc(N4CCNCC4)cn3)nc2n(C2CCCC2)c1=O + CC(Nc1ncnc2nc[nH]c12)c1cc2cccc(Cl)c2c(=O)n1-c1ccccc1 : < 7.00
CC(C)n1nc(-c2ccc3oc(N)nc3c2)c2c(N)ncnc21 + Cc1nc(NC(=O)N2CCCC2C(N)=O)sc1-c1ccnc(C(C)(C)C(F)(F)F)c1 : 7.67
Cn1ncc(Cl)c1-c1cc(C(=O)NC(CN)Cc2cccc(F)c2)sc1Cl (stereo unspecified) + CC(Nc1ncnc2nc[nH]c12)c1cc2cccc(Cl)c2c(=O)n1-c1ccccc1 : < 5.00
CCCS(=O)(=O)Nc1ccc(F)c(C(=O)c2c[nH]c3ncc(-c4ccc(Cl)cc4)cc23)c1F + CC(Nc1ncnc2nc[nH]c12)c1cc2cccc(Cl)c2c(=O)n1-c1ccccc1 : 5.25
CNC(=O)c1ccc(N2C(=S)N(c3ccc(C#N)c(C(F)(F)F)c3)C(=O)C2(C)C)cc1F + Cc1nc(NC(=O)N2CCCC2C(N)=O)sc1-c1ccnc(C(C)(C)C(F)(F)F)c1 : < 5.00
